// provenance: ChEMBL document CHEMBL5724806

Experiment: The drug is tested on the gut metagenome community of A-09 with ENA study accession number: PRJEB31790 for biotransformation under anaerobic condition. The drug concentrations were measured over 7 timepoints collected between 0 and 12 hours of incubation by liquid-chromatography-coupled mass spectrometry (LC–MS)
Assay type: ADME
Parameters: dose 5 uM, timepoint 0, 0.75, 1.5, 3, 6, 9, 12 hours
Conditions: 5 µM
measured.parameter: Bacterial Biotransformation

[[record]]
smiles_repr = "C[C@]12C=CC(=O)C=C1CC[C@@H]1[C@@H]2[C@@H](O)C[C@@]2(C)[C@H]1CC[C@]2(O)C(=O)CO"
result = "Compound metabolized"

[[record]]
smiles_repr = "C[C@@H]1C[C@H]2[C@@H]3CCC4=CC(=O)C=C[C@]4(C)[C@@]3(F)[C@@H](O)C[C@]2(C)[C@@]1(O)C(=O)CO"
result = "Compound metabolized"

[[record]]
smiles_repr = "C[C@]12CCC(=O)C=C1CC[C@@H]1[C@@H]2C(=O)C[C@@]2(C)[C@H]1CC[C@]2(O)C(=O)CO"
result = "Compound metabolized"


###

Test: The drug is tested on Faecalibacterium prausnitzii strain: DSM17677 for biotransformation under anaerobic condition. The drug concentrations were measured over 6 timepoints collected between 0 and 12 hours of incubation by liquid-chromatography-coupled mass spectrometry (LC–MS)
Assay type: ADME
Set-up: dose 5 uM, timepoint 0, 1.5, 3, 6, 9, 12 hours
Settings: faecalibacterium duncaniae, 5 µM
measured.parameter: Bacterial Biotransformation

[[record]]
molecule = "CCCC1O[C@@H]2C[C@H]3[C@@H]4CCC5=CC(=O)C=C[C@]5(C)[C@H]4[C@@H](O)C[C@]3(C)[C@]2(C(=O)CO)O1 (some centres undefined) [BUDESONIDE]"
result = "Compound NOT metabolized"

[[record]]
molecule = "C[C@]12CCC(=O)C=C1CC[C@@H]1[C@@H]2C(=O)C[C@@]2(C)[C@H]1CC[C@]2(O)C(=O)CO"
result = "Compound NOT metabolized"

[[record]]
molecule = "COc1c(C)c2c(c(O)c1C/C=C(\\C)CCC(=O)O)C(=O)OC2"
result = "Compound NOT metabolized"


###

Assay: The drug is tested on the gut metagenome community of A-07 with ENA study accession number: PRJEB31790 for biotransformation under microaerobic condition. The drug concentrations were measured over 7 timepoints collected between 0 and 12 hours of incubation by liquid-chromatography-coupled mass spectrometry (LC–MS)
Assay type: ADME
Set-up: dose 5 uM, timepoint 0, 0.75, 1.5, 3, 6, 9, 12 hours
Settings: 5 µM
measured.parameter: Bacterial Biotransformation

Solved entries (count: 5):
[[record]]
molecule = "Cn1cnc([N+](=O)[O-])c1Sc1ncnc2nc[nH]c12"
measured_parameter = "Bacterial Biotransformation"
result = "Compound metabolized"

[[record]]
molecule = "CO[C@H]1C[C@@H]2CC[C@@H](C)[C@@](O)(O2)C(=O)C(=O)N2CCCC[C@H]2C(=O)O[C@H]([C@H](C)C[C@@H]2CC[C@@H](O)[C@H](OC)C2)CC(=O)[C@H](C)/C=C(\\C)[C@@H](O)[C@@H](OC)C(=O)[C@H](C)C[C@H](C)/C=C/C=C/C=C/1C"
measured_parameter = "Bacterial Biotransformation"
result = "Compound metabolized"

[[record]]
molecule = "C[C@H]1C[C@H]2[C@@H]3CCC4=CC(=O)C=C[C@]4(C)[C@@]3(F)[C@@H](O)C[C@]2(C)[C@@]1(O)C(=O)CO"
measured_parameter = "Bacterial Biotransformation"
result = "Compound metabolized"

[[record]]
molecule = "CCOC(=O)C1=C(COCCN)NC(C)=C(C(=O)OC)C1c1ccccc1Cl (stereo unspecified)"
measured_parameter = "Bacterial Biotransformation"
result = "Compound NOT metabolized"

[[record]]
molecule = "COc1ccc([C@@H]2Sc3ccccc3N(CCN(C)C)C(=O)[C@@H]2OC(C)=O)cc1"
measured_parameter = "Bacterial Biotransformation"
result = "Compound metabolized"


Bench note: what Bacterial Biotransformation did CCOc1nc2cccc(C(=O)O)c2n1Cc1ccc(-c2ccccc2-c2nnn[nH]2)cc1 show?
Compound NOT metabolized

Bench note: what Bacterial Biotransformation did C[C@@H]1C[C@H]2[C@@H]3CCC4=CC(=O)C=C[C@]4(C)[C@@]3(F)[C@@H](O)C[C@]2(C)[C@@]1(O)C(=O)CO show?
Compound metabolized
